Test system: Staphylococcus aureus
Experiment: Antimicrobial activity against Staphylococcus aureus at 1 mg/ml after 24 hrs by agar well diffusion method
Type: functional
Settings: read-out: DIZ
Readout Name: zone of inhibition at 1000 µg/mL (mm)
The reply should be a number in mm, with the unit left off.

Request: Fill in the recorded zone of inhibition at 1000 µg/mL for this compound, with Staphylococcus aureus as test system: Cn1cc(C(=O)c2nn(-c3ccccc3)nc2N)c2ccccc21
Result: 12.2

Request: And what about the compound Cc1[nH]c2ccccc2c1C(=O)/C(C#N)=N/Nc1ccccc1 ?
Result: 0

----------
Tested on: Candida albicans
Assay: Antimicrobial activity against Candida albicans at 1 mg/ml after 48 hrs by agar well diffusion method
Type: functional
Details: read-out: DIZ
Readout Name: zone of inhibition at 1000 µg/mL (mm)
The reply should be a number in mm, with the unit left off.

# Chemical Smiles, zone of inhibition at 1000 µg/mL / mm
records = [
    ("Cn1cc(C(=O)c2nn(-c3ccccc3)nc2NC(=O)c2cnn3c(-c4ccccc4)ccnc23)c2ccccc21", 0),
    ("Cn1cc(C(=O)/C(C#N)=N/Nc2ccccc2)c2ccccc21", 0),
    ("CN(C)/C=C(\\C#N)C(=O)Nc1nn(-c2ccccc2)nc1C(=O)c1cn(C)c2ccccc12", 0),
    ("Cn1cc(C(=O)c2nn(-c3ccccc3)nc2N)c2ccccc21", 10.7),
    ("Cn1cc(-c2c(C#N)c(=O)[nH]c3nn(-c4ccccc4)nc23)c2ccccc21", 0),
]

# input for lookup
Request: Look at this molecule and give its reported zone of inhibition at 1000 µg/mL. Cn1cc(C(=O)c2nn(-c3ccccc3)nc2NC(=O)c2cnn3c(-c4cccs4)ccnc23)c2ccccc21
Result: 5.7
